System: Yap1 mRNA
Test: Dose-dependent inhibition of human Yap1 in A-431 cells (Example 8, 10,000 cells per well, RTS4814)
Assay type: cell-based
Conditions: 31.3 nM; A-431 cells, 10,000 cells per well, free uptake, approximately 48 hours, RTS4814
Strand notation (5' to 3'): a small letter for the sugar, then the base; units joined by * are phosphorothioate-linked, units joined directly phosphodiester-linked; [ ] holds rarer units or linkages, { } end groups; capitals alone tell only the bases. k = constrained ethyl (cEt); [5mC] = 5-methylcytosine; d = 2'-deoxy (DNA)
Rule: Yap1 mRNA, % UTC of 60 % UTC or more gives Yes; anything lower gives No.

1076298 (kG*kT*kT*dA*dT*dA*dA*dA*dG*dA*d[5mC]*d[5mC]*d[5mC]*kA*kA*kT; antisense) [compound 1076298] :: Yes
1074564 (DNA k[5mC]*kT*kG*dA*dA*dT*dT*d[5mC]*d[5mC]*dA*dA*dT*d[5mC]*kG*kA*kG) [compound 1074564] :: No
1075243 (k[5mC]*kT*kT*dA*dG*dT*dA*dA*dG*dA*dA*dT*dT*kG*kT*k[5mC]; antisense) [compound 1075243] :: No

# evaluate next
Prompt line: Is reported Yap1 mRNA, % UTC greater than or equal to 60 % UTC here: 1076526 (kG*kT*kA*dG*dA*dA*dA*dG*dA*dT*dG*dG*d[5mC]*kT*k[5mC]*kA; antisense) [compound 1076526]
Response line: No
